- System: HL-60(TB) leukemia
- Assay details: NCI tumour cell line growth inhibition, 48 h; in the data active = GI50 below about 0.43 µM; inactive = the rest
Outcome (select one): active, inactive

Examples with answers:
Molecule | Assayed system | Class label
C[CH2][Ge]([CH2]C)([CH2]C)[O]C(=O)C([O][Ge]([CH2]C)([CH2]C)[CH2]C)c1ccccc1 (stereo not given) | HL-60(TB) leukemia | inactive
O=C(c1ccccc1)c1ccc(O)c2ncccc12 | HL-60(TB) leukemia | inactive

Prompt line: Can you look up the reported call for NC(=S)N/N=C/c1ccc(OC(=O)COc2ccccc2)cn1 for me?
Response line: inactive

Prompt line: Per the assay record, what outcome was assigned to Cn1ccc2c3c(=O)cc[nH]c3ccc21 ?
Response line: inactive

Prompt line: Answer briefly: the call reported for CNC(C)[C@H]1CCC2C3CCC4C[C@@H](N(C)C(=O)c5ccccc5)CC[C@]4(C)C3CC[C@@]21C (stereo not given in full) in this assay.
Response line: inactive

====

- Test system: UACC-257 melanoma
- Assay details: NCI tumour cell line growth inhibition, 48 h
Experimental readout: TGI

Reference set, count: 5
Compound | TGI
Cc1ncc(COP(=O)(O)O)c(C)c1O | > 100 µM
C/C=C/C=C/CCCCCCCCCCCCC[C@]1(OC)C=CC(CC(=O)OC)OO1 (stereo partly specified) | 45.6 µM
COC(=O)C1=C(C(=O)OC)C(OO)(c2ccccc2)OC1=O (stereo unspecified) | > 100 µM
O=C(/C=C/c1ccccc1Br)c1ccccc1 | 24.1 µM
Cc1cccc(/C=C2/C(=O)Nc3ccccc32)n1 | 30.1 µM

Prompt line: Reported TGI, compound O=C(Nc1ccccc1[N+](=O)[O-])C(=O)C(C(=O)c1ccccc1-c1ccccc1)C1OC(=O)c2ccccc21 (stereo unspecified) : ____
Response line: 33 µM

Prompt line: Quick check: TGI of CC(CC(C)[C@H]1CCC2[C@H]3C(CC(=O)[C@@]21C)[C@@]1(C)CCC(O)C[C@H]1C[C@@H]3O)C(=O)O (stereo partly specified) ?
Response line: > 100 µM

Prompt line: Requested field: TGI. Item: CC(C)C[C@H]1C(=O)N2CCC[C@H]2[C@]2(O)O[C@](NC(=O)[C@@H]3C=C4c5cccc6[nH]c(Br)c(c56)C[C@H]4N(C)C3)(C(C)C)C(=O)N12
Response line: > 100 µM

Prompt line: Item under review: C[C@@H]1CC[C@@H]2[C@@H]1[C@H](OC(=O)c1ccc3ccccc3c1)[C@]1(C3CCCCC3)C[C@@H](OC(=O)CO)[C@@]2(C)O1 . Reported TGI?
Response line: 26.3 µM

Prompt line: Query: TGI; subject: CNC(C)[C@H]1CCC2C3CCC4C[C@@H](N(C)C(=O)c5ccccc5)CC[C@]4(C)C3CC[C@@]21C (stereo partly specified)
Response line: 5.53 µM

Prompt line: Entry CCOC(=O)N1CCc2cc(OC)c(OC)cc2/C1=C/c1ccc(OC)c(OC)c1 has what TGI?
Response line: > 100 µM

Prompt line: May I ask what TGI has been recorded for O=c1[nH]cc(COCC(O)CO)c(=O)[nH]1 (stereo unspecified) ?
Response line: > 100 µM

Prompt line: Query: TGI; subject: CC(=O)c1sc2n(C)c(=O)c3ccccc3[n+]2c1C
Response line: > 100 µM

Prompt line: What value of TGI has been reported for the following compound? Cc1ccc(C2=Nn3c(nc4sc5c(c4c3=O)CCCC5)SC2)cc1
Response line: > 100 µM

Prompt line: Need TGI of N#CCN1CCN(CC#N)CCN(CC#N)CCN(CC#N)CC1 , thanks.
Response line: > 100 µM

Prompt line: TGI for CC1(C)N([O-])[N+](=O)C1(Br)c1ccccc1 (stereo unspecified) ?
Response line: > 100 µM

Prompt line: What value of measured TGI is listed for c1ccc2c(-c3cnn4cc(-c5ccc(N6CCNCC6)cc5)cnc34)ccnc2c1 ?
Response line: 3.29 µM

Prompt line: Given the compound C=C1C(=O)OC2/C=C(\C)CC/C=C(\C)CC(OC(=O)/C(=C/CO)CO)[C@@H]12 (stereo partly specified) , what is its reported TGI?
Response line: 24.2 µM

Prompt line: Which TGI reading was recorded for the compound Cc1ccc(/C=C2\CCCCCC2=O)cc1 ?
Response line: > 100 µM

Prompt line: So what does the record say about TGI for Cc1c(-c2ccccc2)c(C#N)c2nnn(C)c(=O)n12 ?
Response line: > 100 µM
